# system name: HLA B*5701 (human)
# assay notes: inhibition of radiolabeled probe peptide binding to purified HLA
readout kind: pIC50
Lab note: report pIC50 as minus log10 of the concentration in molar units, number only.

Incoming: Recorded pIC50 of KVRKDIQQW [KVRKDIQQW (DENV2 3182-3190)] , please.
Outgoing: 7.82

meta.source: patent US20150150960A1
